- Tested on: MDA-MB-231
- TEST_NAME: Cell viability
- Assay type: cell-based
- TEST_CONTEXT: read-out: IC50 value; MDA-MB-231, MTT assay, 72 h, mean ± s.e.m., n = 3
Flag rule - IC50 less than 7 µM flags yes; the remaining entries get no.

For [F][Sb-]([F])([F])([F])([F])[F].[Na+] [NaSbF6] , is the recorded IC50 below the cut-off of 7 µM? no

For c1ccc(-c2ccnc3c2ccc2c(-c4ccccc4)ccnc23)cc1 [bathophenanthroline] , is the recorded IC50 below the cut-off of 7 µM? no

For [Au+].[F][Sb-]([F])([F])([F])([F])[F].c1ccc(-c2ccccn2)nc1.c1ccc(P(c2ccccc2)c2ccccc2)cc1 [AuTri-3] , is the recorded IC50 below the cut-off of 7 µM? yes

For CC(=O)OC[C@H]1O[C@@H]([S-])[C@H](OC(C)=O)[C@@H](OC(C)=O)[C@@H]1OC(C)=O.CCP(CC)CC.[Au+] [auranofin] , is the recorded IC50 below the cut-off of 7 µM? yes

For c1ccc(-c2ccccn2)nc1 [bipyridine] , is the recorded IC50 below the cut-off of 7 µM? no

For [Au+].[F][Sb-]([F])([F])([F])([F])[F].c1ccc([As](c2ccccc2)c2ccccc2)cc1.c1cnc2c(c1)ccc1cccnc12 [AuTri-4] , is the recorded IC50 below the cut-off of 7 µM? yes

For N.N.[Cl][Pt][Cl] [cisplatin] , is the recorded IC50 below the cut-off of 7 µM? no
